Recorded values, source ChEMBL document CHEMBL1123796.

# key: entry, value: IC50
System: RPMI-8226
Assay: In vitro inhibition of human 8226 myeloma tumor cell line growth.
Type: functional
Conditions: read-out: ID50 (the source's name)
QUANTITY_KIND: IC50 (nM)

{"COMPOUND": "c1ccc2c(CNCCN3CCOCC3)c3ccccc3c(CNCCN3CCOCC3)c2c1", "QUANTITY_KIND": "IC50", "REPORTED_MEASUREMENT": 20}
{"COMPOUND": "CCN1CCCC(NCc2c3ccccc3c(CNC3CCCN(CC)C3)c3ccccc23)C1 (stereo not drawn)", "QUANTITY_KIND": "IC50", "REPORTED_MEASUREMENT": 40}
{"COMPOUND": "CN1CCN(Cc2c3ccccc3c(CN3CCN(C)CC3)c3ccccc23)CC1", "QUANTITY_KIND": "IC50", "REPORTED_MEASUREMENT": 100}

###

Test system: WiDr
Experiment: Tested in vitro for inhibitory activity of human tumor cell growth against WIDR colon tumor, by using clonogenic assays.
Type: functional
Settings: read-out: ID50 (the source's name)
QUANTITY_KIND: log10(IC50) (log10 of the value in µM)

{"COMPOUND": "c1ccc2c(CNCCN3CCOCC3)c3ccccc3c(CNCCN3CCOCC3)c2c1", "QUANTITY_KIND": "log10(IC50)", "REPORTED_MEASUREMENT": -1.70}
{"COMPOUND": "CC(C)N(CCNCc1c2ccccc2c(CNCCN(C(C)C)C(C)C)c2ccccc12)C(C)C", "QUANTITY_KIND": "log10(IC50)", "REPORTED_MEASUREMENT": 1.19}
{"COMPOUND": "C(=N\\Nc1nccs1)/c1c2ccccc2c(/C=N/Nc2nccs2)c2ccccc12", "QUANTITY_KIND": "log10(IC50)", "REPORTED_MEASUREMENT": 0.77}
{"COMPOUND": "CN(C)CCNCc1c2ccccc2c(CNCCN(C)C)c2ccccc12", "QUANTITY_KIND": "log10(IC50)", "REPORTED_MEASUREMENT": -0.74}
{"COMPOUND": "C(=N\\NC1=NCCN1)/c1c2ccccc2c(/C=N/NC2=NCCN2)c2ccccc12", "QUANTITY_KIND": "log10(IC50)", "REPORTED_MEASUREMENT": -0.36}
{"COMPOUND": "CN1CCN(Cc2c3ccccc3c(CN3CCN(C)CC3)c3ccccc23)CC1", "QUANTITY_KIND": "log10(IC50)", "REPORTED_MEASUREMENT": 1.02}
{"COMPOUND": "CN(C)CCN(C)Cc1c2ccccc2c(CN(C)CCN(C)C)c2ccccc12", "QUANTITY_KIND": "log10(IC50)", "REPORTED_MEASUREMENT": -0.85}
{"COMPOUND": "CCN1CCCC(NCc2c3ccccc3c(CNC3CCCN(CC)C3)c3ccccc23)C1 (stereo not given)", "QUANTITY_KIND": "log10(IC50)", "REPORTED_MEASUREMENT": 0.75}
{"COMPOUND": "CNCCN(C)Cc1c2ccccc2c(CN(C)CCNC)c2ccccc12", "QUANTITY_KIND": "log10(IC50)", "REPORTED_MEASUREMENT": 0.29}
{"COMPOUND": "NCCN(CCO)Cc1c2ccccc2c(CN(CCN)CCO)c2ccccc12", "QUANTITY_KIND": "log10(IC50)", "REPORTED_MEASUREMENT": 0.70}

###

System: RPMI-8226
Assay: In vitro inhibition of human 8226 myeloma tumor cell line growth.
Format: functional
Conditions: read-out: ID50 (the source's name)
# key: entry, value: IC50
QUANTITY_KIND: IC50 (µM)

{"QUERY_SMILES": "OCCOCCNCc1c2ccccc2c(CNCCOCCO)c2ccccc12", "REPORTED_MEASUREMENT": 0.23}
{"QUERY_SMILES": "CN(C)CCNCc1c2ccccc2c(CNCCN(C)C)c2ccccc12", "REPORTED_MEASUREMENT": 0.16}
{"QUERY_SMILES": "C(=N\\NC1=NCCN1)/c1c2ccccc2c(/C=N/NC2=NCCN2)c2ccccc12", "REPORTED_MEASUREMENT": 0.23}
{"QUERY_SMILES": "CC(C)N(CCNCc1c2ccccc2c(CNCCN(C(C)C)C(C)C)c2ccccc12)C(C)C", "REPORTED_MEASUREMENT": 7.63}
{"QUERY_SMILES": "OCCNCc1c2ccccc2c(CNCCO)c2ccccc12", "REPORTED_MEASUREMENT": 27.8}
{"QUERY_SMILES": "CN(C)CCN(C)Cc1c2ccccc2c(CN(C)CCN(C)C)c2ccccc12", "REPORTED_MEASUREMENT": 0.29}
{"QUERY_SMILES": "OCCCCCNCc1c2ccccc2c(CNCCCCCO)c2ccccc12", "REPORTED_MEASUREMENT": 4.67}
{"QUERY_SMILES": "CNCCN(C)Cc1c2ccccc2c(CN(C)CCNC)c2ccccc12", "REPORTED_MEASUREMENT": 3.51}
{"QUERY_SMILES": "CN(C)CCCNCc1c2ccccc2c(CNCCCN(C)C)c2ccccc12", "REPORTED_MEASUREMENT": 11}
{"QUERY_SMILES": "NCCNCc1c2ccccc2c(CNCCN)c2ccccc12", "REPORTED_MEASUREMENT": 692}
{"QUERY_SMILES": "C(=N\\Nc1nccs1)/c1c2ccccc2c(/C=N/Nc2nccs2)c2ccccc12", "REPORTED_MEASUREMENT": 6.26}

###

Tested on: WiDr
Assay: Tested in vitro for inhibitory activity of human tumor cell growth against WIDR colon tumor, by using clonogenic assays.
Assay type: functional
Settings: read-out: ID50 (the source's name)
# key: entry, value: IC50

{"QUERY_SMILES": "NCCNCc1c2ccccc2c(CNCCN)c2ccccc12", "IC50 (µM)": 0.42}
{"QUERY_SMILES": "OCCCCCNCc1c2ccccc2c(CNCCCCCO)c2ccccc12", "IC50 (µM)": 13.4}
{"QUERY_SMILES": "OCCOCCNCc1c2ccccc2c(CNCCOCCO)c2ccccc12", "IC50 (µM)": 2.91}
